# Test System: hERG potassium channel (Homo sapiens (Human))
# Sequence (Q12809 whole entry): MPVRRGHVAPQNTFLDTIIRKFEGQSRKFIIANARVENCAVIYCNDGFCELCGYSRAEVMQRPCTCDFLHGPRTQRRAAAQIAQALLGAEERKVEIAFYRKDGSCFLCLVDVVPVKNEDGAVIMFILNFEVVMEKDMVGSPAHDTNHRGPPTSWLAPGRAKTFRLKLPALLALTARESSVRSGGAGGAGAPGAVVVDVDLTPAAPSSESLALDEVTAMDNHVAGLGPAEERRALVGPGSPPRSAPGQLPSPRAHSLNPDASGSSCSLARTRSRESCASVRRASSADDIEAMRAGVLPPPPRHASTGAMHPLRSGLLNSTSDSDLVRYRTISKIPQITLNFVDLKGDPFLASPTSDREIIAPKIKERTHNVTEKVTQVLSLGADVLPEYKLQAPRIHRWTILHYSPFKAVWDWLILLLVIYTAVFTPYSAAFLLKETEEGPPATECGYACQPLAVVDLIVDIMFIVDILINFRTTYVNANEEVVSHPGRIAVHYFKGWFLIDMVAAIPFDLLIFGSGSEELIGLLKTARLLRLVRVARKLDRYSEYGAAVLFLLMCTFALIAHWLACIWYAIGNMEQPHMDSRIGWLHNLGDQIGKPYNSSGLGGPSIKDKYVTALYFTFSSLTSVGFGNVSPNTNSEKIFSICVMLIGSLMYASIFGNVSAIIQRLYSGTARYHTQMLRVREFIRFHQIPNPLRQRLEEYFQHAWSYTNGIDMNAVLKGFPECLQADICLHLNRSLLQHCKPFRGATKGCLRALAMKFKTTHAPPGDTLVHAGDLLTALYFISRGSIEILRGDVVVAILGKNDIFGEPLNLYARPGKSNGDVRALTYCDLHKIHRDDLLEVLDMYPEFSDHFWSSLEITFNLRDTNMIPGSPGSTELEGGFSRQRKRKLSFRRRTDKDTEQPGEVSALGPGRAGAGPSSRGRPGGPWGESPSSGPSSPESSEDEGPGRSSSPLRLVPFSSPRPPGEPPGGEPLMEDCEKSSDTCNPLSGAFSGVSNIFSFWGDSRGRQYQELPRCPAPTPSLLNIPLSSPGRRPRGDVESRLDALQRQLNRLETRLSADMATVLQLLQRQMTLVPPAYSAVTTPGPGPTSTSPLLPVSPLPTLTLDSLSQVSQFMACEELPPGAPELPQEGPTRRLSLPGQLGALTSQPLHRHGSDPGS
# Test Protocol: biochemical
# Experimental Context: read-out: hERG inhibition IC50; Table 7
pIC50: −log10 of the molar value.
Measure Name: pIC50

{"columns": ["Molecule", "Endpoint Result"],
 "data": [
  ["CC[C@H]1[C@@H](O)C2C3CC[C@H]([C@H](C)CCC(=O)O)[C@@]3(C)C[C@H](O)C2[C@@]2(C)CC[C@@H](O)C[C@@H]12 (stereo partly shown) [Compound L1, reference compound]", "< 4.00"]
]}

----------
# Test System: CYP2C9 (Homo sapiens (Human), UniProt P11712)
# Sequence (P11712 whole entry): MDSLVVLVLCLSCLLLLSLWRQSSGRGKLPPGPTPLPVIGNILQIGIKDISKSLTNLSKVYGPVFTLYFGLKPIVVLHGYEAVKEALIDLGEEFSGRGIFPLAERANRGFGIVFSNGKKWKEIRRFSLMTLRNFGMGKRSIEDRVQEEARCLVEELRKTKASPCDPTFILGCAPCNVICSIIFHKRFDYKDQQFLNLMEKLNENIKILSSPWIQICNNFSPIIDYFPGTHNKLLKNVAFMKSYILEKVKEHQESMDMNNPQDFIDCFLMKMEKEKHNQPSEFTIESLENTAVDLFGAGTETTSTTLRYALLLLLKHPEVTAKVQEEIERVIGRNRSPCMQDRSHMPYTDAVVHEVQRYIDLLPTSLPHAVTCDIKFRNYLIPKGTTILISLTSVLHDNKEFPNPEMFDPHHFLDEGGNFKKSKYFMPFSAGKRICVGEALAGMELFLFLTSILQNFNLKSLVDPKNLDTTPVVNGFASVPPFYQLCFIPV
# Test Protocol: CYP450 inhibition, fluorescent substrate, recombinant baculosomes
# Assay type: in vitro ADME
Examples of molecules with documented IC50 follow.

{"columns": ["Molecule", "IC50"],
 "data": [
  ["CC[C@H]1[C@@H](O)C2C3CC[C@H]([C@H](C)CCOS(=O)(=O)[O-])[C@@]3(C)C[C@H](O)C2[C@@]2(C)CC[C@@H](O)C[C@@H]12.[Na+] (some centres unmarked) [Compound 3, sodium salt]", "> 10 µM"],
  ["CC[C@H]1[C@@H](O)C2C3CC[C@H]([C@H](C)CCCOS(=O)(=O)[O-])[C@@]3(C)C[C@H](O)C2[C@@]2(C)CC[C@@H](O)C[C@@H]12.[Na+] (some centres unmarked) [Compound 5, sodium salt]", "> 10 µM"]
]}

----------
# Test System: hTGR5 (Homo sapiens (Human))
# Sequence (Q8TDU6 whole entry): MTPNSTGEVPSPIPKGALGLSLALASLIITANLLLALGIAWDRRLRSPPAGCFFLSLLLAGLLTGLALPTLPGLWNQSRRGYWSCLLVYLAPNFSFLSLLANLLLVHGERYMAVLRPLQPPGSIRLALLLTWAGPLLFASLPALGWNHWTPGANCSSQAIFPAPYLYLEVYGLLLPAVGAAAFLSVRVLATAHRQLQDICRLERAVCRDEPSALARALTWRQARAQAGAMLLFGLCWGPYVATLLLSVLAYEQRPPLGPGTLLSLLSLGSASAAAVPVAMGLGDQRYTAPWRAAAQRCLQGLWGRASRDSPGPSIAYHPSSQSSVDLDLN
# Test Protocol: Cross species TGR5 activity, CHO cells, human
# Type: cell-based
pEC50: −log10 of the molar value.

{"columns": ["Compound", "pEC50"],
 "data": [
  ["CC[C@H]1[C@@H](O)C2C3CC[C@H]([C@H](C)CCCOS(=O)(=O)[O-])[C@@]3(C)C[C@H](O)C2[C@@]2(C)CC[C@@H](O)C[C@@H]12.[Na+] (some centres unmarked) [Compound 5, sodium salt]", 5.52],
  ["CC[C@H]1[C@@H](O)C2C3CC[C@H]([C@H](C)CCOS(=O)(=O)[O-])[C@@]3(C)C[C@H](O)C2[C@@]2(C)CC[C@@H](O)C[C@@H]12.[Na+] (some centres unmarked) [Compound 3, sodium salt]", 5.30]
]}

----------
# Test System: hTGR5 (Homo sapiens (Human))
# Test Protocol: HTR-FRET intracellular cAMP assay in NCI-H716 cells
# Assay type: cell-based
# Experimental Context: Table 1; Ref LCA
pEC50: −log10 of the molar value.

{"columns": ["Compound", "Modifier", "pEC50"],
 "data": [
  ["CC[C@H]1[C@@H](O)C2C3CC[C@H]([C@H](C)CCOS(=O)(=O)[O-])[C@@]3(C)C[C@H](O)C2[C@@]2(C)CC[C@@H](O)C[C@@H]12.[Na+] (some centres unmarked) [Compound 3, sodium salt]", "=", 4.08],
  ["CC[C@H]1[C@@H](O)C2C3CC[C@H]([C@H](C)CC(=O)O)[C@@]3(C)C[C@H](O)C2[C@@]2(C)CC[C@@H](O)C[C@@H]12 (some centres unmarked) [Compound 1]", "<", 4.00],
  ["CC[C@H]1[C@@H](O)C2C3CC[C@H]([C@H](C)CCCOS(=O)(=O)[O-])[C@@]3(C)C[C@H](O)C2[C@@]2(C)CC[C@@H](O)C[C@@H]12.[Na+] (some centres unmarked) [Compound 5, sodium salt]", "=", 4.11],
  ["CC[C@H]1[C@@H](O)[C@@H]2[C@H]([C@@H](O)C[C@]3(C)[C@@H]([C@H](C)CCCO)CC[C@@H]23)[C@@]2(C)CC[C@@H](O)C[C@@H]12 [Compound 4]", "=", 4.86],
  ["CC[C@H]1[C@@H](O)C2C3CC[C@H]([C@H](C)CCO)[C@@]3(C)C[C@H](O)C2[C@@]2(C)CC[C@@H](O)C[C@@H]12 (some centres unmarked) [Compound 2]", "=", 4.03]
]}
